fraction ligated overview
B1: F1*; the commonest letter at each place (parent)
chain: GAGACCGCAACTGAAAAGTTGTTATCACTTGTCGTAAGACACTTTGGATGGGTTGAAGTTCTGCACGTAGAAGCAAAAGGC

variants of: B1; experiment: fraction ligated after 30 min (ligated reads / total reads); higher = more ligase activity; details: with F1*sub RNA substrate (template-directed ligation), 42 °C
Please reply with the value in numeric form only.

sequence.data	measured.value
GAGACCGCAACTGAAAAGTTGTTATCACTTGTCATATGACACTTTGGATGGGTTGAAGTTCTGCACGTAGAAGCAAAAGGC	0.84

Write down fraction ligated measured for item "GAGACCGCAACTGAAAAGTTGTTGTCTCTTGTCGTAAGACACTTTGGATGGGTTGAAGTTCTGCACGTAGAAGCAAAAGGC"
0.126

Write down fraction ligated measured for item "GAGACCGCAACTGAAAAGTTGTTATCTTTTGTCGTAAGACACTTTGGATGGGTTGAAGTTCTGCACGTAGAAGCAAAAGGC"
0.798

Write down fraction ligated measured for item "GAGACCGCAACTGAAAAGTTGTTATCACTTGTCGTAAGACAATTTGGATGGGTTGAGGTTCTGCACGTAGAAGCAAAAGGC"
0.794

Write down fraction ligated measured for item "GAGACCGCAACTGAAAAGTTGTTCTCACTTGTCGTAAGATACTTTGGATGGGTTGAAGTTCTGCACGTAGAAGCAAAAGGC"
0.707

Write down fraction ligated measured for item "GAGACCGCAACTGAAAAGTTGTAATTACTTGTCGTAAGACACTTTGGATGGGTTGAAGTTCTGCACGTAGAAGCAAAAGGC"
0.794

Write down fraction ligated measured for item "GAGACCGCAACTGAAAAGTTGTTACCACTTGTCGTAATACACTTTGGATGGGTTGAAGTTCTGCACGTAGAAGCAAAAGGC"
0.747

Write down fraction ligated measured for item "GAGACCGCAACTGAAAAGTTGTTATCACTTGTCGTAAAACACTATGGATGGGTTGAAGTTCTGCACGTAGAAGCAAAAGGC"
0.838
